# System: HepG2 Srxn1-GFP reporter cells (+30 nM CDDO-Me)
# Assay Name: Srxn1-GFP intensity median modified Z-score relative to plate median; higher = stronger NRF2 / oxidative stress reporter activation, active = hit call of the paper
# Conditions: 10 µM; exposure time: 24h
About 330 (14%) of roughly 2,300 compounds showed activity. These entries were drawn from the full list.
// values below are reported Srxn1-GFP intensity median modified Z-score
Just the number, please.

Field: example entries. Status: answers known.
INSERT INTO measurements (compound, reported) VALUES
  ('CC(CC(C(N)=O)(c1ccccc1)c1ccccc1)N(C)C (configuration not stated)', -0.42),
  ('c1ccc2c(c1)OCC(C1=NCCN1)O2 (configuration not stated)', 0.16),
  ('CNc1ccccc1C(=O)O', -0.451),
  ('COP(=O)(OC)OC=C(Cl)Cl', 1.08),
  ('O=C1c2ccccc2-c2cccc3cccc1c23', 0.148);

Q: Dear colleague, I am looking for the recorded Srxn1-GFP intensity median modified Z-score of the following compound: "Nc1[nH]c(=O)n2c1C2"
A: 0.164

Q: Fill in the blank: the reported Srxn1-GFP intensity median modified Z-score of NC(Cc1ccc(N(CCCl)CCCl)cc1)C(=O)O (configuration not stated) is ____.
A: 0.947

Q: Could you tell me which Srxn1-GFP intensity median modified Z-score is on file for C[N+]1(C)CCc2cc3c(cc2[C@H]1C1OC(=O)c2c1ccc1c2OCO1)OCO3 (some centres not stated) ?
A: 2.41

Q: Name the recorded Srxn1-GFP intensity median modified Z-score for Cc1cc(C(C#N)c2ccc(Cl)cc2)c(Cl)cc1NC(=O)c1cc(I)cc(I)c1O (configuration not stated) .
A: 9.76

Q: Please give the measured Srxn1-GFP intensity median modified Z-score for this compound: "C[C@]12CCC(=O)C=C1CCc1ccc(O)cc12"
A: -0.0198

Q: For the compound "N#CC(=Cc1ccc(O)cc1)C(=O)O" , what Srxn1-GFP intensity median modified Z-score is on record?
A: -0.146

Q: Srxn1-GFP intensity median modified Z-score for CC1OC(OC2C=C3CCC4C(CCC5(C)C(c6ccc(=O)oc6)CCC45O)C3(C)CC2)C(O)C(O)C1O (configuration not stated) ?
A: 2.81

* * *

# Test system: HepG2 Srxn1-GFP reporter cells (+30 nM CDDO-Me)
# Assay Name: Srxn1-GFP intensity median modified Z-score relative to plate median; higher = stronger NRF2 / oxidative stress reporter activation, active = hit call of the paper
# Conditions: 10 µM; exposure time: 24h
Screen size: about 2,300 compounds; about 330 (14%) showed activity. Not all results are given here.
# binning rule on Srxn1-GFP intensity median modified Z-score: Low = under -0.2, Medium = from -0.2 up to 0.4, High = 0.4 and over

INSERT INTO measurements (compound, class) VALUES
  ('Cc1ccc(/N=C/N(C)/C=N/c2ccc(C)cc2C)c(C)c1 [euspeclibcmpd739]', 'Medium');

Shifting focus to the compound that follows.
Q: Please indicate the class for C[C@@H]1O[C@@H](O[C@H]2C[C@@H](O)[C@]3(CO)C4C(CC[C@]3(O)C2)[C@@]2(O)CCC(c3coc(O)c3)[C@@]2(C)C[C@H]4O)[C@H](O)[C@H](O)[C@H]1O (some centres not stated) [euspeclibcmpd1207] based on its Srxn1-GFP intensity median modified Z-score.
A: Low

* * *

# Tested on: HepG2 Srxn1-GFP reporter cells (+30 nM CDDO-Me)
# Assay Name: Srxn1-GFP intensity median modified Z-score relative to plate median; higher = stronger NRF2 / oxidative stress reporter activation, active = hit call of the paper
# Conditions: 10 µM; exposure time: 24h
Out of some 2,300 compounds screened, about 330 (14%) showed activity.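 Rule for the calls: active = median modified Z-score above 1.96; inactive = 1.96 or below.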 Only a sample is shown.
// classify into active, inactive

INSERT INTO measurements (compound, class) VALUES
  ('c1ccc2nc(N3CCNCC3)ccc2c1', 'inactive');

Q: What outcome does the record of this test show for "NCCc1c[nH]c2ccccc12" ?
A: inactive

Q: Can you look up the reported call for "CCOc1cc(C=O)ccc1O" for me?
A: inactive

* * *

# Tested on: HepG2 Srxn1-GFP reporter cells (+30 nM CDDO-Me)
# Assay Name: Srxn1-GFP intensity median modified Z-score relative to plate median; higher = stronger NRF2 / oxidative stress reporter activation, active = hit call of the paper
# Conditions: 10 µM; exposure time: 24h
The campaign covered roughly 2,300 compounds. About 330 (14%) showed activity. Not all results are given here.
Would you mind labelling by Srxn1-GFP intensity median modified Z-score? At or over 0.5 is Fulfilled, under is Not fulfilled.

INSERT INTO results (molecule, class) VALUES
  ('CC1=C2C3OC(=O)C(C)[C@@H]3CC[C@@]2(C)C=CC1=O (some centres undefined)', 'Not fulfilled'),
  ('COc1cc([C@@H]2c3cc4c(cc3[C@H](OC(C)=O)[C@H]3COC(=O)C23)OCO4)cc(OC)c1OC (some centres undefined)', 'Fulfilled'),
  ('O=C(O)Cc1ccccc1', 'Not fulfilled'),
  ('O=c1n(Cl)c(=O)n(Cl)c(=O)n1Cl', 'Not fulfilled');

Q: Please check the record CC1CCC2(OC1)OC1C(O)C3C4CCC5CC(OC6OC(CO)C(OC7OC(CO)C(O)C(OC8OCC(O)C(O)C8O)C7OC7OC(CO)C(O)C(OC8OC(CO)C(O)C(O)C8O)C7O)C(O)C6O)C(O)CC5(C)C4CCC3(C)C1C2C (centres undefined) and state if its Srxn1-GFP intensity median modified Z-score is at or above 0.5.
A: Fulfilled

* * *

# Tested on: HepG2 Srxn1-GFP reporter cells (+30 nM CDDO-Me)
# Assay Name: Srxn1-GFP intensity median modified Z-score relative to plate median; higher = stronger NRF2 / oxidative stress reporter activation, active = hit call of the paper
# Conditions: 10 µM; exposure time: 24h
The campaign covered roughly 2,300 compounds. About 330 (14%) showed activity. These entries were drawn from the full list.
The label depends only on Srxn1-GFP intensity median modified Z-score: Y if it is at least 0.3, N if it is smaller.

INSERT INTO results (compound, class) VALUES
  ('CN(C(=O)Oc1cccc2cccnc12)c1ccccc1', 'Y'),
  ('CC(=O)O[C@@H]1CC2C(C)(C)C(=O)C=C[C@]2(C)C2CC[C@]3(C)C(=CC(=O)O[C@H]3c3ccoc3)[C@@]21C (stereo not given in full)', 'Y'),
  ('CCOC(=O)CC(SP(=S)(OC)OC)C(=O)OCC (stereo not given)', 'N'),
  ('C[C@]12C=CC(=O)CC1=CCC1C2CC[C@]2(C)C(=O)CCC12 (stereo not given in full)', 'N'),
  ('O=C(O)C1[O][Sb]2[O]C(=O)C([O]2)C(C(=O)O)[O][Sb]2[O]C(=O)C1[O]2 (stereo not given)', 'Y');

Q: # bool: Srxn1-GFP intensity median modified Z-score of CCN1C[C@@]2(COC)C3[C@@H](OC)[C@H]4[C@@H]1[C@]3(C(OC)C[C@H]2O)C1C[C@@]2(O)[C@H](OC(=O)c3ccccc3)C1[C@]4(OC(C)=O)[C@@H](O)[C@@H]2OC (stereo not given in full) >= 0.3
A: N

Q: Does C[C@@H]1CC[C@@]2(NC1)O[C@H]1C[C@H]3C4CC=C5C[C@@H](O)CC[C@]5(C)C4CC[C@]3(C)C1[C@@H]2C (stereo not given in full) have a reported Srxn1-GFP intensity median modified Z-score of at least 0.3?
A: N

Q: Can C[C@]12CCC3[C@@H](CC[C@@]45OC4C(=O)C(C#N)C[C@]35C)[C@H]1CC[C@@H]2O (stereo not given in full) be said to have Srxn1-GFP intensity median modified Z-score at or above 0.3?
A: N

Q: Quick check: does CC1(C)C2CC(=O)[C@]3(C)C(CC[C@@]4(C)[C@H](c5ccoc5)OC(=O)C5OC543)[C@@]2(C)[C@@H](O)C[C@H]1O (stereo not given in full) have Srxn1-GFP intensity median modified Z-score greater than or equal to 0.3?
A: N

Q: Determine whether measured Srxn1-GFP intensity median modified Z-score meets or exceeds 0.3 for "CCCCCCCCC(=O)NCc1ccc(O)c(OC)c1"
A: N

Q: Quick check, Srxn1-GFP intensity median modified Z-score >= 0.3? CC1(C)C(=O)C2O[C@@H]2[C@@]2(C)C1C[C@@H](O)[C@]1(C)C2CC[C@@]2(C)[C@H](c3ccoc3)OC(=O)C3OC321 (stereo not given in full)
A: Y

Q: Threshold query (Srxn1-GFP intensity median modified Z-score >= 0.3) on COc1cc2c(c(OC)c1OC)-c1ccc(=O)c(O)cc1C(NC(C)=O)CC2 (stereo not given)
A: N

Q: Does the compound "NCCc1cc(O)c(O)cc1O" have recorded Srxn1-GFP intensity median modified Z-score that is 0.3 or more?
A: N

Q: Could you verify whether the entry "CCOP(=S)(OCC)Oc1nc(Cl)c(Cl)cc1Cl" shows Srxn1-GFP intensity median modified Z-score of no less than 0.3?
A: Y
